Reported ROC Analysis AUC Senolytic Treatment values for the following substances.
system: p16-3MR mice; assay: ROC analysis of discriminatory power of circulating microRNAs; assay type: in vivo, mouse; settings: serum, RT-qPCR, DOX/GCV vs DOX; symbol after the number = significance
Marks after values point to notes of the source that are not given here.

The examples below pair each entry with its known result.
[
  {
    "Substance": "miR-27a-3p: circulating microRNA biomarker, SEQ ID No. 5 (UUCACAGUGGCUAAGUUCCGC; expressed or natural sequence; listed as Homo sapiens)",
    "Measured Attribute": "ROC Analysis AUC Senolytic Treatment",
    "Result": "0.719+"
  },
  {
    "Substance": "miR-31-5p: circulating microRNA biomarker, SEQ ID No. 87 (AGGCAAGAUGCUGGCAUAGCU; expressed or natural sequence; listed as Homo sapiens)",
    "Measured Attribute": "ROC Analysis AUC Senolytic Treatment",
    "Result": "0.672°"
  }
]

Attention now shifts to the item below.
Reported ROC Analysis AUC Senolytic Treatment ( miR-24-3p: circulating microRNA biomarker, SEQ ID No. 21 (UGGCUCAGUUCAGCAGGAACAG; expressed or natural sequence; listed as Homo sapiens) ) = 0.789*

---

tested on: p16-3MR mice; experiment: ROC analysis of discriminatory power of circulating microRNAs; format: in vivo, mouse; conditions: serum, RT-qPCR, DOX vs PBS; symbol after the number = significance
Marks after values point to notes of the source that are not given here.
Reported ROC Analysis AUC Senescence values for the following substances.

The examples below pair each entry with its known result.
[
  {
    "Substance": "miR-199b-5p: circulating microRNA biomarker, SEQ ID No. 82 (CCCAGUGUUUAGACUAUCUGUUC; expressed or natural sequence; listed as Homo sapiens)",
    "Measured Attribute": "ROC Analysis AUC Senescence",
    "Result": "0.750+"
  },
  {
    "Substance": "miR-151-5p: circulating microRNA biomarker, SEQ ID No. 17 (UCGAGGAGCUCACAGUCUAGU; expressed or natural sequence; listed as Homo sapiens)",
    "Measured Attribute": "ROC Analysis AUC Senescence",
    "Result": "0.828*"
  },
  {
    "Substance": "miR-31-5p: circulating microRNA biomarker, SEQ ID No. 87 (AGGCAAGAUGCUGGCAUAGCU; expressed or natural sequence; listed as Homo sapiens)",
    "Measured Attribute": "ROC Analysis AUC Senescence",
    "Result": "0.688+"
  }
]

Attention now shifts to the item below.
Reported ROC Analysis AUC Senescence ( miR-199a-5p: circulating microRNA biomarker, SEQ ID No. 81 (CCCAGUGUUCAGACUACCUGUUC; expressed or natural sequence; listed as Homo sapiens) ) = 0.906*

---

tested on: p16-3MR mice; assay: RT-qPCR verification of serum circulating microRNA changes, one-way ANOVA; assay type: in vivo, mouse; conditions: serum, DOX/GCV compared to DOX
Measured Attribute: One-way ANOVA Senolytic Treatment (DOX/GCV)

[
  {
    "Substance": "miR-23b-3p: circulating microRNA biomarker, SEQ ID No. 47 (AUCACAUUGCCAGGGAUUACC; expressed or natural sequence; listed as Homo sapiens)",
    "Target Or System": "p16-3MR mice",
    "Result": "* (significant p < 0.05)"
  },
  {
    "Substance": "miR-151-5p: circulating microRNA biomarker, SEQ ID No. 17 (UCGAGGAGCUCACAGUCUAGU; expressed or natural sequence; listed as Homo sapiens)",
    "Target Or System": "p16-3MR mice",
    "Result": "○"
  },
  {
    "Substance": "miR-215-5p: circulating microRNA biomarker, SEQ ID No. 86 (AUGACCUAUGAAUUGACAGAC; expressed or natural sequence; listed as Homo sapiens)",
    "Target Or System": "p16-3MR mice",
    "Result": "* (significant p < 0.05)"
  }
]

---

system: p16-3MR mice; assay: RT-qPCR verification of serum circulating microRNA changes, one-way ANOVA; assay type: in vivo, mouse; conditions: serum, DOX/GCV compared to DOX
Measured Attribute: One-way ANOVA Senolytic Treatment (DOX/GCV)

The examples below pair each entry with its known result.
[
  {
    "Substance": "miR-181b-5p: circulating microRNA biomarker, SEQ ID No. 84 (AACAUUCAUUGCUGUCGGUGGGU; expressed or natural sequence; listed as Homo sapiens)",
    "Target Or System": "p16-3MR mice",
    "Result": "+ (by trend p < 0.2)"
  },
  {
    "Substance": "miR-483-5p: circulating microRNA biomarker, SEQ ID No. 91 (AAGACGGGAGGAAAGAAGGGAG; expressed or natural sequence; listed as Homo sapiens)",
    "Target Or System": "p16-3MR mice",
    "Result": "* (significant p < 0.05)"
  },
  {
    "Substance": "miR-375-5p: circulating microRNA biomarker, SEQ ID No. 88 (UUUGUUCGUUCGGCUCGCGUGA; expressed or natural sequence; listed as Homo sapiens)",
    "Target Or System": "p16-3MR mice",
    "Result": "* (significant p < 0.05)"
  },
  {
    "Substance": "miR-183-3p: circulating microRNA biomarker, SEQ ID No. 85 (GUGAAUUACCGAAGGGCCAUAA; expressed or natural sequence; listed as Homo sapiens)",
    "Target Or System": "p16-3MR mice",
    "Result": "* (significant p < 0.05)"
  }
]

Attention now shifts to the item below.
Reported One-way ANOVA Senolytic Treatment (DOX/GCV) ( miR-199b-5p: circulating microRNA biomarker, SEQ ID No. 82 (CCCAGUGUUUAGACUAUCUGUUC; expressed or natural sequence; listed as Homo sapiens) ) = + (by trend p < 0.2)

---

system: p16-3MR mice; experiment: ROC analysis of discriminatory power of circulating microRNAs; assay type: in vivo, mouse; conditions: serum, RT-qPCR, DOX/GCV vs DOX; symbol after the number = significance
Marks after values point to notes of the source that are not given here.
Reported ROC Analysis AUC Senolytic Treatment values for the following substances.

The examples below pair each entry with its known result.
[
  {
    "Substance": "miR-183-3p: circulating microRNA biomarker, SEQ ID No. 85 (GUGAAUUACCGAAGGGCCAUAA; expressed or natural sequence; listed as Homo sapiens)",
    "Target Or System": "p16-3MR mice",
    "ROC Analysis AUC Senolytic Treatment": "0.891*"
  },
  {
    "Substance": "miR-483-5p: circulating microRNA biomarker, SEQ ID No. 91 (AAGACGGGAGGAAAGAAGGGAG; expressed or natural sequence; listed as Homo sapiens)",
    "Target Or System": "p16-3MR mice",
    "ROC Analysis AUC Senolytic Treatment": "0.766*"
  }
]

# miR-345-5p: circulating microRNA biomarker, SEQ ID No. 83 (GCUGACUCCUAGUCCAGGGCUC; expressed or natural sequence; listed as Homo sapiens) with p16-3MR mice: ROC Analysis AUC Senolytic Treatment is 0.875*

---

system: p16-3MR mice; test: RT-qPCR verification of serum circulating microRNA changes, one-way ANOVA; type: in vivo, mouse; settings: p<0.05, in words
Measured Attribute: change of serum level following senolytic treatment (DOX/GCV compared to DOX)

[
  {
    "Substance": "miR-181b-5p: circulating microRNA biomarker, SEQ ID No. 84 (AACAUUCAUUGCUGUCGGUGGGU; expressed or natural sequence; listed as Homo sapiens)",
    "Result": "significantly changed"
  },
  {
    "Substance": "miR-23b-3p: circulating microRNA biomarker, SEQ ID No. 47 (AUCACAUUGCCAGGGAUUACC; expressed or natural sequence; listed as Homo sapiens)",
    "Result": "significantly changed"
  },
  {
    "Substance": "miR-125a-5p: circulating microRNA biomarker, SEQ ID No. 90 (UCCCUGAGACCCUUUAACCUGUGA; expressed or natural sequence; listed as Homo sapiens)",
    "Result": "significantly changed"
  }
]

---

system: p16-3MR mice; experiment: RT-qPCR verification of serum circulating microRNA changes, one-way ANOVA; assay type: in vivo, mouse; details: serum, n=8 per group, male and female mice
Measured Attribute: One-way ANOVA Senescence (DOX vs PBS)

[
  {
    "Substance": "miR-27a-3p: circulating microRNA biomarker, SEQ ID No. 5 (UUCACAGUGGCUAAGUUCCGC; expressed or natural sequence; listed as Homo sapiens)",
    "Measured Attribute": "One-way ANOVA Senescence (DOX vs PBS)",
    "Result": "○"
  },
  {
    "Substance": "miR-23b-3p: circulating microRNA biomarker, SEQ ID No. 47 (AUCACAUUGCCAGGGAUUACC; expressed or natural sequence; listed as Homo sapiens)",
    "Measured Attribute": "One-way ANOVA Senescence (DOX vs PBS)",
    "Result": "○"
  },
  {
    "Substance": "miR-183-3p: circulating microRNA biomarker, SEQ ID No. 85 (GUGAAUUACCGAAGGGCCAUAA; expressed or natural sequence; listed as Homo sapiens)",
    "Measured Attribute": "One-way ANOVA Senescence (DOX vs PBS)",
    "Result": "○"
  }
]
